- Assay Text: Mouse blood and tissue PK (LC/MS-MS)
- Format: in vivo
- Cond: BALB/c nude, mouse, tumor, oral, 10 mg/kg, Capan-2, study Capan-2 #3_PHA 2023, 10 mg/kg, 8h; read-out: RMC-6236 (nM) Tumor
Assay Readout: concentration at 8 h (nM)
Report as a plain number; the unit nM is understood.

Data request: Request the reported concentration at 8 h associated with CCn1c(-c2cc(N3CCN(C)CC3)cnc2[C@H](C)OC)c2c3cc(ccc31)-c1csc(n1)C[C@H](NC(=O)[C@H]1C[C@@H]1C)C(=O)N1CCC[C@H](N1)C(=O)OCC(C)(C)C2
Data returned: 1120

Source listed as paper PMC11149917.
